assayed-target: T1, human MSLN-R3 protein (human, UniProt Q13421 487-598)
T1 construct: also called hMSLN-R3
T1 sequence (Q13421 495-606, form in doubt): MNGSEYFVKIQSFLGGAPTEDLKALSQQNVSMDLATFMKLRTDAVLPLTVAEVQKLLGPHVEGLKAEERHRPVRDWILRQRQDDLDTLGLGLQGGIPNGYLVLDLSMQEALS
method: ELISA on coated antigen, antibody 0.0001 nM
measurement-name: OD450 (OD450)
Give bare numbers, in OD450.

{"binder": "F7.33.24-H11 (scFv, not shown: small tags and cut ends, also called S009-F7.33.24 humanized antibody VH2a + VL2) scFv: EVQLVQSGAEVKKPGASVKVSCKASGYTFTSYWMHWVRQAPGQGLEWMGNVNPSNAGSNYNEKFKNRVTITVDKSASTAYMELSSLRSEDTAVYYCAPHYIGSRPGFAYWGQGTLVTVSSGGGGSGGGGSGGGGSDIVMTQTPLSLSVTPGQPASISCKASQNVGTNIAWYLQKPGQSPQALIYSASYRYSGVPDRFSGSGSGTDFTLKISRVEAEDVGVYYCQQYNSYPLTFGGGTKVEIK", "uom": "OD450", "OD450": 0.05}
{"binder": "F7.33.24-H10 (scFv, not shown: small tags and cut ends, also called S009-F7.33.24 humanized antibody VH2a + VL1) scFv: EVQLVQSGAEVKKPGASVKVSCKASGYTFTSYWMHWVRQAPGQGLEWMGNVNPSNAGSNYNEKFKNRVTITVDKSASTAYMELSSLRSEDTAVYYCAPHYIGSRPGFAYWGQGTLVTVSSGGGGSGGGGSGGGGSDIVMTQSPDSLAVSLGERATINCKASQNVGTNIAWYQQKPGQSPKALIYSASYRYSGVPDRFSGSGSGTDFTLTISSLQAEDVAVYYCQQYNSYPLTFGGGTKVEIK", "uom": "OD450", "OD450": 0.05}
{"binder": "F7.33.24-H5 (scFv, not shown: small tags and cut ends, also called S009-F7.33.24 humanized antibody VH1a + VL2) scFv: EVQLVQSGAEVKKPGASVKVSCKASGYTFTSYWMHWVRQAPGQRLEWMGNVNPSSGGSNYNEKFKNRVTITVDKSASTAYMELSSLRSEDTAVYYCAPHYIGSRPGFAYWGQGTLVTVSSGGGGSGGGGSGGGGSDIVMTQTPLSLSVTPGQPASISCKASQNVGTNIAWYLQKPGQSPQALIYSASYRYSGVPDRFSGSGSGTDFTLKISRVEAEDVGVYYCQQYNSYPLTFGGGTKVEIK", "uom": "OD450", "OD450": 0.04}

Any idea what OD450 was measured for F7.33.24-H7 (scFv, not shown: small tags and cut ends, also called S009-F7.33.24 humanized antibody VH2 + VL1) scFv: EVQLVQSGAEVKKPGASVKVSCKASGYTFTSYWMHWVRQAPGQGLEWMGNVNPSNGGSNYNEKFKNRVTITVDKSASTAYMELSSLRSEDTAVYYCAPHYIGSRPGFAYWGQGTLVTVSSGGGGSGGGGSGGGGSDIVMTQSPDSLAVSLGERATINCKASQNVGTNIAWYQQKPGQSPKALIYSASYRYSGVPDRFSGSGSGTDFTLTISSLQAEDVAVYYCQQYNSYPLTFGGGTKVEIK ?
0.04

Values were extracted from patent US20250250357A1.
